Values from patent US20240247080A1

Target: hGLP1R (Homo sapiens, UniProt P43220)
Construct: expressed in transfected cells; host or cells: HEK-293 cells carrying a CRE-luciferase reporter gene
Sequence (P43220 24-463): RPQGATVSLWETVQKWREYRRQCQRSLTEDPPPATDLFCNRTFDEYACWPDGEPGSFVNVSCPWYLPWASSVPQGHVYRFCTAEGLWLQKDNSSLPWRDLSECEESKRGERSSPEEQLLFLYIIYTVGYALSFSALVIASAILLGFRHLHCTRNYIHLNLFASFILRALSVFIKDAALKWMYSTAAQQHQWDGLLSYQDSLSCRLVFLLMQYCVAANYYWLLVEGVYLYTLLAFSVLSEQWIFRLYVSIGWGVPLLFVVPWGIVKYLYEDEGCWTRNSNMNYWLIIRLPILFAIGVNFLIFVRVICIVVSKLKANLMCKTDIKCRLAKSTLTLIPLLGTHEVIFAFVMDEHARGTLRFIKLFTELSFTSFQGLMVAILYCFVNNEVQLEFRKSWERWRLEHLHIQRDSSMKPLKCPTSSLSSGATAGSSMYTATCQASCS
Assay: hGLP1R CreLuc reporter gene assay in 0.5% and 100% plasma
Type: cell-based
Settings: CreLuc reporter gene assay, 0.5% human plasma; read-out: hGLP1R 0.5% hP
Starred links: 1 amine or outer side, 2 acyl side, 3 side chain; linkers in the order of their positions; H or OH if unused. Non-standard residues stand in square brackets, D forms with d. Groups on a side chain read outwards from the residue. *: point of attachment. C20 diacid = O=C(O)CCCCCCCCCCCCCCCCCCC(=O)*; C18 diacid = O=C(O)CCCCCCCCCCCCCCCCC(=O)*; γGlu = O=C(O)[C@H](CCC(=O)[*:2])N[*:1]; εLys = N[C@@H](CCCCN[*:1])C(=O)[*:2]; AEEA = NCCOCCOCC(=O)O; Aib = CC(C)(N)C(=O)O
Could you please mark Yes for values of EC50 below 100 pM and No for values at or above it?

substance	target system	classification
H-Y[Aib]EGTFTSDYSI[Aib]LEKQAQ[Aib]AFVEWLIK([εLys-γGlu-γGlu-γGlu-γGlu-γGlu-γGlu-C20 diacid])GGPSSAASLRHYYNWLTRQRY-NH2 [Compound 98]	hGLP1R (Homo sapiens, UniProt P43220)	No
H-Y[Aib]EGTFTSDYSI[Aib]LEKQAQ[Aib]AFVEWLIK([εLys-γGlu-γGlu-γGlu-γGlu-γGlu-C18 diacid])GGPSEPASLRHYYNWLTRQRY-NH2 [Compound 263]	hGLP1R (Homo sapiens, UniProt P43220)	No
H-Y[Aib]EGTFTSDYSI[Aib]LEEEAQ[Aib]AFVEWLIK([εLys-γGlu-γGlu-γGlu-γGlu-γGlu-γGlu-C20 diacid])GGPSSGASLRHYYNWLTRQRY-NH2 [Compound 66]	hGLP1R (Homo sapiens, UniProt P43220)	No
H-Y[Aib]EGTFTSDYSI[Aib]LEKQAQ[Aib]AFVQWLIK([AEEA-AEEA-γGlu-γGlu-γGlu-γGlu-γGlu-C18 diacid])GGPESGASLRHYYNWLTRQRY-NH2 [Compound 55]	hGLP1R (Homo sapiens, UniProt P43220)	Yes
H-Y[Aib]EGTFTSDYSI[Aib]LEKQAQ[Aib]AFVEWLIK([AEEA-AEEA-Glu-Glu-Glu-C18 diacid])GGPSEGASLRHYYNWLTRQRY-NH2 [Compound 298]	hGLP1R (Homo sapiens, UniProt P43220)	No
